This collection of values is drawn from patent US20210395357A1.

- assay.system: rhIL-6-His (recombinant human IL-6, Val30 to Met212, C-terminal 6 His) (human, UniProt P05231 30-212)
- Sequence (P05231 other isoform, or with tags, fused parts or gaps limits assumed): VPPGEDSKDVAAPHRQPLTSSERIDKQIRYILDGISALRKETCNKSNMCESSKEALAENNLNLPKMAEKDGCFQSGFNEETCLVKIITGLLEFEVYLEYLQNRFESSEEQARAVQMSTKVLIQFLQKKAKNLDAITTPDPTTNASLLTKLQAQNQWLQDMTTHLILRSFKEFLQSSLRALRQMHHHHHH
- test: cell-based or functional assay
In this section, each of the binders is paired with its reported concentration of SAA in supernatant of rhIL-6 stimulated HepG2 cells at 100 µg/mL antibody.
Please reply with the bare figure in ng/mL and do not write the unit itself.

HZ-0408d (antibody, human IgG1, kappa, V domains shown, Humanized from murine 140-4; IgG1 type antibody from 293F cells; also called L3/H3) VH: QVTLKESGPVLVKPTETLTLTCTVSGFSLSTSGMGVGWIRQPPGKALEWLAHIWWDDDKRYNSALKSRLTISKDTSKSQVVLTMTNMDPVDTATYYCARIGGLYVDYLMDYWGQGTLVTVSS VL: DIQMTQSPSSLSASVGDRVTITCRASQSISDYLHWYQQKPGKAPKLLIYYASQSISGVPSRFSGSGSGTDFTLTISSLQPEDFATYYCQNGHSFPWTFGQGTKVEIKR : 85

Could you now consider this next binder?
Query block: Tell me measured concentration of SAA in supernatant of rhIL-6 stimulated HepG2 cells at 100 µg/mL antibody for HZ-0408a (antibody, human IgG1, kappa, V domains shown, Humanized from murine 140-4; expressed in 293F cells and captured on Protein A as an IgG1 type antibody; also called L1/H2) VH: QVTLKESGPALVKPTQTLTLTCTFSGFSLSTSGMGVGWIRQPPGKALEWLAHIWWDDDKRYNSALKSRLTISKDTSKNQVVLTMTNMDPVDTATYYCARIGGLYVDYLMDYWGQGTLVTVSS VL: EIVLTQSPDFQSVTPKEKVTITCRASQSISDYLHWYQQKPDQSPKLLIKYASQSISGVPSRFSGSGSGTDFTLTINSLEAEDAATYYCQNGHSFPWTFGQGTKVEIKR please.
Result block: 30.5
